Reported values of interaction score for individual entries
- target.system: T1, 4H331-bN
- T1 chain: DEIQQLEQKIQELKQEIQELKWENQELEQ
- assay.procedure: two-hybrid library CCNG1;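 also: natural log of median RNA to DNA barcode read ratio; higher means stronger binding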

[
  {
    "binder": "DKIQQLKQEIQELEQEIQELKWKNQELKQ [4H2576-bN]",
    "interaction score": 1.55
  },
  {
    "binder": "DKNQQLEQEIQELKQKNQELEWKIQELEQ [4H3189-bN]",
    "interaction score": -1.93
  },
  {
    "binder": "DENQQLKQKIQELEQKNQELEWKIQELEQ [4H1845-bN]",
    "interaction score": -1.66
  },
  {
    "binder": "DKNQQLEQEIQELKQKNQELEWEIQELEQ [4H3185-bN]",
    "interaction score": -2.02
  },
  {
    "binder": "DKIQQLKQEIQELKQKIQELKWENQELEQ [4H2667-bN]",
    "interaction score": 2.18
  },
  {
    "binder": "DKIQQLEQKNQELEQEIQELKWEIQELKQ [4H2442-bN]",
    "interaction score": 0.796
  },
  {
    "binder": "DEIQQLEQKIQELKQEIQELKWENQELEQ [4H331-bN]",
    "interaction score": -0.214
  }
]
